Taken from patent US11179383B2.

# Assay Target: α4β7 integrin (Homo sapiens, UniProt P13612+P26010)
# Construct: monitoring the capture of α4β7 integrin expressing cells on a recombinant MadCAM-1 extracellular domain-coated plate; endogenous in cells; host or cells: RPMI8866 cells
# Sequence (P13612 34-1032): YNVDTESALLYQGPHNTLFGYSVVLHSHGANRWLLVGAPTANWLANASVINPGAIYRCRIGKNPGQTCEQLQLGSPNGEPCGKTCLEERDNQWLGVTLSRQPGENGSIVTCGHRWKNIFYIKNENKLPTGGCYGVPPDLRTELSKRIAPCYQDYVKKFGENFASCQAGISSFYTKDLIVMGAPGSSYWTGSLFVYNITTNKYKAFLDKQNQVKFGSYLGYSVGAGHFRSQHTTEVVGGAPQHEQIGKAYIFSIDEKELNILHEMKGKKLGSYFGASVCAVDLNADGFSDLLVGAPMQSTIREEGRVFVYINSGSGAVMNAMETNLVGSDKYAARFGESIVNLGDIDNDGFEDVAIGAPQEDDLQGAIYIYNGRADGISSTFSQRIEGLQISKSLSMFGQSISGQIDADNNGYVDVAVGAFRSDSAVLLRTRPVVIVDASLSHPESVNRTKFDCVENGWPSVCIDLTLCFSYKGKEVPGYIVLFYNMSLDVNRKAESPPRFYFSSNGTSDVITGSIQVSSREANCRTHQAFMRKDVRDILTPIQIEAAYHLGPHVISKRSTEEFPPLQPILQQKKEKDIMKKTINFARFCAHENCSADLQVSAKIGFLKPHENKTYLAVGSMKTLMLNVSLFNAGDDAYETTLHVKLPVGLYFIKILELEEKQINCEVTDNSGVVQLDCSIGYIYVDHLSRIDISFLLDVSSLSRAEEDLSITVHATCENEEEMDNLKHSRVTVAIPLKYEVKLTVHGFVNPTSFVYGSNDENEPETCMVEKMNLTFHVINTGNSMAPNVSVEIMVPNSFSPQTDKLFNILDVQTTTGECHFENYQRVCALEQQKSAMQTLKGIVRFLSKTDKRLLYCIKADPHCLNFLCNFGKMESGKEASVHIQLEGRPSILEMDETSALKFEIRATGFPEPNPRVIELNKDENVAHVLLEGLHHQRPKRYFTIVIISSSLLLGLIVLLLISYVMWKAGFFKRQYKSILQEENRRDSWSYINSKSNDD
# Sequence (P26010 20-798): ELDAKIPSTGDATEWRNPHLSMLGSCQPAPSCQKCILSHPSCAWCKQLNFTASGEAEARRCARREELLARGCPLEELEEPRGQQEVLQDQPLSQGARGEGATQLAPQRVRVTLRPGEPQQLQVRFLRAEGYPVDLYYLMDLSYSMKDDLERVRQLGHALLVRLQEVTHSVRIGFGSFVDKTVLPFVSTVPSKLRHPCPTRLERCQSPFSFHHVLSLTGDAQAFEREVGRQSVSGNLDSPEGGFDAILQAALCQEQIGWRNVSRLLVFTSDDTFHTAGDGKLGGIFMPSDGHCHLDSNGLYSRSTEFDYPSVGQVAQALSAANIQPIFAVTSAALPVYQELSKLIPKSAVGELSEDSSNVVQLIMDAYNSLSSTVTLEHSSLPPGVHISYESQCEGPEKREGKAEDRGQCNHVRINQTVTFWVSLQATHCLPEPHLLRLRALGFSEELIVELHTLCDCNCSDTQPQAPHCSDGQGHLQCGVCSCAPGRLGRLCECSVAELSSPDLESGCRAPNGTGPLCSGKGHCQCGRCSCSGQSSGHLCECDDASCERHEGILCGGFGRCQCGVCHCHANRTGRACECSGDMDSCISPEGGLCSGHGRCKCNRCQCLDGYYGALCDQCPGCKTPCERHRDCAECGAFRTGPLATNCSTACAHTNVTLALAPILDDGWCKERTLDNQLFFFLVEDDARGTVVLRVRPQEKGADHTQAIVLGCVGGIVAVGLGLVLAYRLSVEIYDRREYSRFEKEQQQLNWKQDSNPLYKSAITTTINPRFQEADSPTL
# Test Details: α4β7 Integrin Cell Capture Assay
# Type: cell-based
# Assay Setup: EC50 α4β7 (nM), capture of α4β7 integrin expressing RPMI8866 cells on recombinant MadCAM-1 extracellular domain-coated plate; DMEM+0.5% FBS+0.5 mM MnCl2
# Description: α4β7 Integrin Cell Capture Assay The potency of inhibitors in preventing α4β7 integrin interaction with MadCAM-1 was measured by monitoring the capture of α4β7 integrin expressing cells on a recombinant MadCAM-1 extracellular domain-coated plate. 384-Well plates (Corning 3702) were coated with MadCAM-1 extracellular domain by dispensing 20 μL of MAdCAM-1 at 1.0 μg/mL per well and incubating overnight at 4° C. […]
Readout Label: EC50 (nM)
// note: answer is a bare numeric in nM

Report EC50 for CN(C)C(=O)Oc1ccc(C[C@H](NC(=O)c2c(Cl)cccc2Cl)C(=O)O)c2ncccc12 [Example 89] tested on α4β7 integrin (Homo sapiens, UniProt P13612+P26010). 173
